test-target: P. falciparum 3D7-luc
assay: Parasite growth inhibition, luciferase-expressing strain 3D7-luc
Format: cell-based, Plasmodium falciparum
experimental-parameters: read-out: IC50s for 3D7 growth; late ring-stage parasites, 48 h, 37°C, 2% parasitemia, 2% hematocrit
measured-property: IC50

Q: In one line, give reported IC50 of the entry CSC[C@H]1O[C@@H](n2cnc3c(N)ncnc32)[C@H](O)[C@@H]1O .
A: > 100 µM
